target: GCN2 kinase (Homo sapiens, UniProt Q9P2K8); experiment: GCN2 enzyme inhibition assay (Transcreener ADP2 fluorescence polarization); format: biochemical; conditions: Enzyme activity for compounds of Formula IV; Ki(app), 280 μM ATP, 25° C.
Sequence (Q9P2K8 whole entry): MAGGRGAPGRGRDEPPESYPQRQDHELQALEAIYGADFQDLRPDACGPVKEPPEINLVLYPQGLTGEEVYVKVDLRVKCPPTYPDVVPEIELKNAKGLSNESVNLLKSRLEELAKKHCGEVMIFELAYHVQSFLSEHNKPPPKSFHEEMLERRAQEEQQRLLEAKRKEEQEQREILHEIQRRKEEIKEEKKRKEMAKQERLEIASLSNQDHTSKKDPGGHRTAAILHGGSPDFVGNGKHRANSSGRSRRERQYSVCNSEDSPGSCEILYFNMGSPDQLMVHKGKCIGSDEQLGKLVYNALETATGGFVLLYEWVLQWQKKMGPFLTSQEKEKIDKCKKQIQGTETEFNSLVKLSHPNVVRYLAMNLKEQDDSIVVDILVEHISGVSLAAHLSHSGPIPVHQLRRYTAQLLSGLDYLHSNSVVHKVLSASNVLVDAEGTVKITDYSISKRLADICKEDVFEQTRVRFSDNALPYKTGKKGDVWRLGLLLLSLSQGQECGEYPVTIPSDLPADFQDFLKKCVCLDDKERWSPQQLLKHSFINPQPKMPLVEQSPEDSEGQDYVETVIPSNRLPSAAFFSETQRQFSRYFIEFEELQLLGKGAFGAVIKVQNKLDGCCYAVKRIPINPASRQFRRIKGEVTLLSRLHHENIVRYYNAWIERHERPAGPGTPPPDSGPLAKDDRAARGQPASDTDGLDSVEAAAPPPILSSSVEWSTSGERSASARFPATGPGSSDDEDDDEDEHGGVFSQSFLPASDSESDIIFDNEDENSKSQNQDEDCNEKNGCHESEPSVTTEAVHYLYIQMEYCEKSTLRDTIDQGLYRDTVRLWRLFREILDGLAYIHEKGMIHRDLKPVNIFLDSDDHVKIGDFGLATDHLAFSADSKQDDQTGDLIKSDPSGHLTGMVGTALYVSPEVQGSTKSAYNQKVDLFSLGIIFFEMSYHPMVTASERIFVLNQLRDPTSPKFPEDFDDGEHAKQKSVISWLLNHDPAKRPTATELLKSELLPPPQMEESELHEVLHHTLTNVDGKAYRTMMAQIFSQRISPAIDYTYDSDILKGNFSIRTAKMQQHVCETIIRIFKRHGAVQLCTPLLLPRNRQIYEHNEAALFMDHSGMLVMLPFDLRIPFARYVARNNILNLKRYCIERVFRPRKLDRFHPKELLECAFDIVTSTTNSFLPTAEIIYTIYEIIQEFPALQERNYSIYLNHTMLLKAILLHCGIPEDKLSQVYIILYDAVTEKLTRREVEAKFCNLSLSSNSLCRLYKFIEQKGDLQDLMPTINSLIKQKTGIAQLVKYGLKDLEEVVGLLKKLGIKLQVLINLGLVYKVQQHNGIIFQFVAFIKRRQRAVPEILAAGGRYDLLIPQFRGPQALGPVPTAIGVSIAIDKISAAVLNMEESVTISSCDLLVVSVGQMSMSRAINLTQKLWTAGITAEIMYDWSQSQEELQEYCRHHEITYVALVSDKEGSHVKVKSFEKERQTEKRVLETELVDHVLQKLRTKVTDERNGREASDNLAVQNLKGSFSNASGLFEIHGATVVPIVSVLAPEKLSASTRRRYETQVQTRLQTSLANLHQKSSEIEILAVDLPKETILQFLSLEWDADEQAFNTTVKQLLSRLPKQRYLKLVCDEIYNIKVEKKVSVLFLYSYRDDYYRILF
pKi: −log10 of the molar value.
As shown below, each of these compounds has a reported pKi value.

COMPOUND	pKi
FC(F)(F)c1cn2c(-c3nccc(N4CCNC(c5cn[nH]c5)C4)n3)cnc2cn1 (single isomer, unassigned) [IV-231]	6.00 to 7.00
FC(F)(F)c1cn2c(-c3nccc(N4CCC(CN5CCOCC5)CC4)n3)cnc2cn1	6.00 to 7.00
NC(=O)c1cn2c(-c3nccc(N4CCN(C(=O)C5CC5)CC4)n3)cnc2cn1	7.00 to 8.00
CC(=O)N1CCN(c2ccnc(-c3cnc4cnc(Br)cn34)n2)CC1	6.00 to 7.00
N#C[C@@H]1CCN(c2ccnc(-c3cnc4cnc(C(F)(F)F)cn34)n2)C1 (single isomer, unassigned)	6.00 to 7.00
Cc1csc2c1CN(c1ccnc(-c3cnc4cnc(C(F)(F)F)cn34)n1)CC2	6.00 to 7.00
CC(C)(O)C1CCN(c2ccnc(-c3cnc4cnc(C(F)(F)F)cn34)n2)C1 (centres unmarked)	6.00 to 7.00
CC(=O)N1CCN(c2ccnc(-c3cnc4cnc(-c5cccnc5)cn34)n2)CC1	6.00 to 7.00
